Give measured EC50 Value (M), JKR9 reporter activation by peptide-loaded T2 cells for each item. Keep answers brief.
TARGET: MAGE-A1 target antigen peptide … presented by HLA-A*02:01 on cells (human)
ASSAY PROCEDURE: cell-based or functional assay

- BINDER: "ht27M1243 (TCR, V domains shown) Valpha: GEDVEQSLFLSVREGDSSVINCTYTDSSLTYLYWYKQEPGAGLQLLTYIFSNMDMKQDQRLTVLLNKKDKHLSLRIADTQTGDSAIYFCAGSGGGTDKLIFGTGTRLQVFP Vbeta: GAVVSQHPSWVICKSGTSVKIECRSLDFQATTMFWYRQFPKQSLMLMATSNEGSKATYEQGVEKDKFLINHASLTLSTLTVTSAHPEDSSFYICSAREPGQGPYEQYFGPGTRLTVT"
  RESULT: "2.98e-07 M"

Go through the list and state EC50 Value (M), JKR9 reporter activation by peptide-loaded T2 cells for each entry.
1. ht27M1369 (TCR, V domains shown) Valpha: GEDVEQSLFLSVREGDSSVINCTYTDSSSTYLYWYKQEPGAGLQLLTYIFAFESMKQDQRLTVLLNKKDKHLSLRIADTQTGDSAIYFCAGSGGGTDKLIFGTGTRLQVFP Vbeta: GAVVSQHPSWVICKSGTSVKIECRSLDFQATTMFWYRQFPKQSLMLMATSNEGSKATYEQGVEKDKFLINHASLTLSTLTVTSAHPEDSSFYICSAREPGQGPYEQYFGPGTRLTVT
2. ht27M1414 (TCR, V domains shown) Valpha: GEDVEQSLFLSVREGDSSVINCTYTDSSSTYLYWYKQEPGAGLQLLTYTWPHMDMKQDQRLTVLLNKKDKHLSLRIADTQTGDSAIYFCAGSGGGTDKLIFGTGTRLQVFP Vbeta: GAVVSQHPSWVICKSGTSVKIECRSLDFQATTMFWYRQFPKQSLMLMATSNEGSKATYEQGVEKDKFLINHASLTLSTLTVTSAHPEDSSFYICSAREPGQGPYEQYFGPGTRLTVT
3. ht27M1362 (TCR, V domains shown) Valpha: GEDVEQSLFLSVREGDSSVINCTYTDSSSTYLYWYKQEPGAGLQLLTYIFIFQYMKQDQRLTVLLNKKDKHLSLRIADTQTGDSAIYFCAGSGGGTDKLIFGTGTRLQVFP Vbeta: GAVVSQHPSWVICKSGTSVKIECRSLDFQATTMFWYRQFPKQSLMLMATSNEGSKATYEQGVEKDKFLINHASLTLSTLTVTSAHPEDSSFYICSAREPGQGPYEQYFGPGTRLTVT
4. ht27M1013 (TCR, V domains shown) Valpha: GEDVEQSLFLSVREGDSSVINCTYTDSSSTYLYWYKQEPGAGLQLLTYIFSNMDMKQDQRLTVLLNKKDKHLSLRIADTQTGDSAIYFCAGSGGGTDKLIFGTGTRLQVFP Vbeta: GAVVSQHPSWVICKSGTSVKIECRSLDFQATTMFWYRQFPKQSLMLMATSNEGSKATYEQGVEKDKFLINHASLTLSTLTVTSAHPEDSSFYICSAREPGSGPFEQYFGPGTRLTVT

RESULT:
7.66e-08 M
2.25e-08 M
3.99e-08 M
1.98e-08 M
